Reference for the values: ChEMBL document CHEMBL1649169

Catalogue of MIC readings, one per entry.
Test system: Pasteurella multocida
Assay: Antibacterial activity against Pasteurella multocida BB1041 harboring plasmid pB1000 bearing blaROB-1 gene and plasmid pB9956 bearing tetH gene by CLSI M31-A3 broth microdilution method
Format: functional
Respond numerically; units are µg/mL and should not be typed.

A selection of reference data follows.
[[record]]
chemical_string = "CN(C)[C@@H]1C(O)=C(C(N)=O)C(=O)[C@@]2(O)C(O)=C3C(=O)c4c(O)cccc4[C@@](C)(O)[C@H]3C[C@@H]12"
readout_unit = "µg/mL"
endpoint_value = 32

[[record]]
chemical_string = "CO/N=C(\\C(=O)N[C@@H]1C(=O)N2C(C(=O)O)=C(COC(C)=O)CS[C@H]12)c1csc(N)n1"
readout_unit = "µg/mL"
endpoint_value = 1


What MIC value was documented for this molecule, CN[C@@H]1[C@H](O[C@H]2[C@H](O[C@H]3[C@H](O)[C@@H](O)[C@H](N=C(N)N)[C@@H](O)[C@@H]3N=C(N)N)O[C@@H](C)[C@]2(O)C=O)O[C@@H](CO)[C@H](O)[C@H]1O ?
16

----------
Listing of entries alongside the reported MIC.
System: Pasteurella multocida
Assay: Antibacterial activity against Pasteurella multocida BB1035 harboring plasmid pB1000 bearing blaROB-1 gene and plasmid pB1005 bearing strA, sul2 genes by CLSI M31-A3 broth microdilution method
Assay type: functional

Reference set (3 entries):
[[record]]
compound = "CO/N=C(\\C(=O)N[C@@H]1C(=O)N2C(C(=O)O)=C(COC(C)=O)CS[C@H]12)c1csc(N)n1 [CEFOTAXIME]"
test_target = "Pasteurella multocida"
endpoint_value = "0.5 µg/mL"

[[record]]
compound = "CN[C@@H]1[C@H](O[C@H]2[C@H](O[C@H]3[C@H](O)[C@@H](O)[C@H](N=C(N)N)[C@@H](O)[C@@H]3N=C(N)N)O[C@@H](C)[C@]2(O)C=O)O[C@@H](CO)[C@H](O)[C@H]1O [STREPTOMYCIN]"
test_target = "Pasteurella multocida"
endpoint_value = "> 256 µg/mL"

[[record]]
compound = "Cc1cc(NS(=O)(=O)c2ccc(N)cc2)no1 [SULFAMETHOXAZOLE]"
test_target = "Pasteurella multocida"
endpoint_value = "> 256 µg/mL"


Reported MIC, compound N[C@@H](C(=O)N[C@@H]1C(=O)N2C(C(=O)O)=C(Cl)CS[C@H]12)c1ccccc1 [CEFACLOR ANHYDROUS] : ____
> 16 µg/mL

Would you mind doing CC1(C)S[C@@H]2[C@H](NC(=O)Cc3ccccc3)C(=O)N2[C@H]1C(=O)O [PENICILLIN G] as well?
> 16 µg/mL

// query: CN(C)[C@@H]1C(O)=C(C(N)=O)C(=O)[C@@]2(O)C(O)=C3C(=O)c4c(O)cccc4[C@@](C)(O)[C@H]3C[C@@H]12 [TETRACYCLINE]
2 µg/mL

And CC1(C)S[C@@H]2[C@H](NC(=O)[C@H](N)c3ccc(O)cc3)C(=O)N2[C@H]1C(=O)O [AMOXICILLIN] ?
> 256 µg/mL

----------
System: Pasteurella multocida
Assay: Antibacterial activity against Pasteurella multocida BB1043 harboring plasmid pB1000 bearing blaROB-1 gene and plasmid pB9956 bearing tetH gene by CLSI M31-A3 broth microdilution method
Format: functional
MEASUREMENT_NAME: MIC (µg/mL)
Enter your answer as a number in µg/mL; do not include the unit.

[[record]]
chemical_string = "CO/N=C(\\C(=O)N[C@@H]1C(=O)N2C(C(=O)O)=C(COC(C)=O)CS[C@H]12)c1csc(N)n1"
measurement_name = "MIC"
readout_unit = "µg/mL"
endpoint_value = 1

[[record]]
chemical_string = "CN[C@@H]1[C@H](O[C@H]2[C@H](O[C@H]3[C@H](O)[C@@H](O)[C@H](N=C(N)N)[C@@H](O)[C@@H]3N=C(N)N)O[C@@H](C)[C@]2(O)C=O)O[C@@H](CO)[C@H](O)[C@H]1O"
measurement_name = "MIC"
readout_unit = "µg/mL"
endpoint_value = 8


Provide value of MIC for this record tested with Pasteurella multocida: CN(C)[C@@H]1C(O)=C(C(N)=O)C(=O)[C@@]2(O)C(O)=C3C(=O)c4c(O)cccc4[C@@](C)(O)[C@H]3C[C@@H]12
32

----------
Tested on: Pasteurella multocida
Experiment: Antibacterial activity against Pasteurella multocida BB1041 harboring plasmid pB1000 bearing blaROB-1 gene and plasmid pB9956 bearing tetH gene by CLSI M31-A3 broth microdilution method
Format: functional
Each entry below carries its reported MIC.

Please review the entries below; each comes with its answer.
[[record]]
compound = "N[C@@H](C(=O)N[C@@H]1C(=O)N2C(C(=O)O)=C(Cl)CS[C@H]12)c1ccccc1 [CEFACLOR ANHYDROUS]"
measurement_name = "MIC"
endpoint_value = "> 16 µg/mL"

[[record]]
compound = "CC1(C)S[C@@H]2[C@H](NC(=O)Cc3ccccc3)C(=O)N2[C@H]1C(=O)O"
measurement_name = "MIC"
endpoint_value = "> 16 µg/mL"

[[record]]
compound = "Cc1cc(NS(=O)(=O)c2ccc(N)cc2)no1"
measurement_name = "MIC"
endpoint_value = "> 256 µg/mL"


Given the entry CC1(C)S[C@@H]2[C@H](NC(=O)[C@H](N)c3ccc(O)cc3)C(=O)N2[C@H]1C(=O)O , report its measured MIC.
> 256 µg/mL

----------
Tested on: Pasteurella multocida
Test: Antibacterial activity against Pasteurella multocida BB1037 harboring plasmid pB1000 bearing blaROB-1 gene and plasmid pB1005 bearing strA, sul2 genes by CLSI M31-A3 broth microdilution method
Type: functional
MEASUREMENT_NAME: MIC

Example results:
[[record]]
molecule = "Cc1cc(NS(=O)(=O)c2ccc(N)cc2)no1 [SULFAMETHOXAZOLE]"
test_target = "Pasteurella multocida"
measurement_name = "MIC"
endpoint_value = "> 256 µg/mL"

[[record]]
molecule = "CO/N=C(\\C(=O)N[C@@H]1C(=O)N2C(C(=O)O)=C(COC(C)=O)CS[C@H]12)c1csc(N)n1 [CEFOTAXIME]"
test_target = "Pasteurella multocida"
measurement_name = "MIC"
endpoint_value = "1 µg/mL"

[[record]]
molecule = "CC1(C)S[C@@H]2[C@H](NC(=O)[C@H](N)c3ccc(O)cc3)C(=O)N2[C@H]1C(=O)O [AMOXICILLIN]"
test_target = "Pasteurella multocida"
measurement_name = "MIC"
endpoint_value = "> 256 µg/mL"

[[record]]
molecule = "N[C@@H](C(=O)N[C@@H]1C(=O)N2C(C(=O)O)=C(Cl)CS[C@H]12)c1ccccc1 [CEFACLOR ANHYDROUS]"
test_target = "Pasteurella multocida"
measurement_name = "MIC"
endpoint_value = "> 16 µg/mL"

[[record]]
molecule = "CN(C)[C@@H]1C(O)=C(C(N)=O)C(=O)[C@@]2(O)C(O)=C3C(=O)c4c(O)cccc4[C@@](C)(O)[C@H]3C[C@@H]12 [TETRACYCLINE]"
test_target = "Pasteurella multocida"
measurement_name = "MIC"
endpoint_value = "2 µg/mL"

[[record]]
molecule = "CC1(C)S[C@@H]2[C@H](NC(=O)Cc3ccccc3)C(=O)N2[C@H]1C(=O)O [PENICILLIN G]"
test_target = "Pasteurella multocida"
measurement_name = "MIC"
endpoint_value = "> 16 µg/mL"


Turning now to a further record.
Which MIC is reported for this molecule? CN[C@@H]1[C@H](O[C@H]2[C@H](O[C@H]3[C@H](O)[C@@H](O)[C@H](N=C(N)N)[C@@H](O)[C@@H]3N=C(N)N)O[C@@H](C)[C@]2(O)C=O)O[C@@H](CO)[C@H](O)[C@H]1O [STREPTOMYCIN]
> 256 µg/mL

----------
Test system: Pasteurella multocida
Experiment: Antibacterial activity against Pasteurella multocida BB1043 harboring plasmid pB1000 bearing blaROB-1 gene and plasmid pB9956 bearing tetH gene by CLSI M31-A3 broth microdilution method
Assay type: functional
MEASUREMENT_NAME: MIC

Consider the worked cases shown below.
[[record]]
compound = "CC1(C)S[C@@H]2[C@H](NC(=O)Cc3ccccc3)C(=O)N2[C@H]1C(=O)O [PENICILLIN G]"
endpoint_value = "> 16 µg/mL"

[[record]]
compound = "CC1(C)S[C@@H]2[C@H](NC(=O)[C@H](N)c3ccc(O)cc3)C(=O)N2[C@H]1C(=O)O [AMOXICILLIN]"
endpoint_value = "> 256 µg/mL"

[[record]]
compound = "Cc1cc(NS(=O)(=O)c2ccc(N)cc2)no1 [SULFAMETHOXAZOLE]"
endpoint_value = "> 256 µg/mL"


Find the measured MIC: item N[C@@H](C(=O)N[C@@H]1C(=O)N2C(C(=O)O)=C(Cl)CS[C@H]12)c1ccccc1 [CEFACLOR ANHYDROUS] , target or system Pasteurella multocida.
> 16 µg/mL
